# Test system: Colon cancer organoid
# experimentSummary: Targeting of F14 CAF-induced therapy resistance in O23 CRC organoid-stroma co-culture. Cell viability is reported with Gefitinib.
# Type: functional, Homo sapiens
# conditionContext: Homo sapiens, Concentration 10 uM; read-out: Cell Viability

{"columns": ["compound", "viability at 10 µM / %"],
 "data": [
  ["CSc1cccnc1N1CCN(Cc2nc3ccccc3[nH]2)CC1 [A-769]", 59],
  ["Cc1sc2c(c1C)C(c1ccc(Cl)cc1)=N[C@@H](CC(=O)OC(C)(C)C)c1nnc(C)n1-2", 35.6],
  ["CC1=C(C#N)C(c2ccc3c(c2)c(NC(=O)c2ccccc2C)nn3C)C(C#N)=C(C)N1 [BAY-974]", 40.1],
  ["CC(=O)NCC(=O)N1[C@@H]2CC[C@H]1c1ccc(Nc3ncc(C(F)(F)F)c(NC4CCC4)n3)cc12 [PF-03814735]", 25.7],
  ["CCS(=O)(=O)c1cc2cc(C[C@](O)(CC(C)(C)c3ccc(F)cc3C(N)=O)C(F)(F)F)[nH]c2cn1 [BI 653048]", 68.4],
  ["CN(C)CC#Cc1ccc(OCCCc2sc(N3CCc4cccc(C(=O)Nc5nc6ccccc6s5)c4C3)nc2C(=O)O)c(F)c1 [A-1155463]", 2.66],
  ["N#CC1(c2ccccn2)CCN(Cc2cc(C(=O)N3CCCC3)c(=O)n3ccccc23)CC1 [MSD-M1PAM-NC]", 81.2],
  ["CN1C[C@H](Nc2cnn(C)c(=O)c2Br)C[C@H](c2ccccc2)C1", 68.1],
  ["COc1cc(N(C)c2ccnc3ccc(C(F)(F)F)cc23)cc(OC)c1OC", 69.7],
  ["CCOCCn1cc(C(=O)Nc2ccc(-n3nc(-c4cccnc4)cc3C(F)(F)F)cn2)ccc1=O [BI 1935]", 70.8],
  ["CN(C)C(=O)/C(C#N)=C/c1ccc(-c2nc3cnc4[nH]ccc4c3n2C2CCCCC2)o1", 56.7],
  ["CCC(=O)N1CCOc2c(cc(-c3ccc(OC)c(OC)c3)cc2OCC2CCCN(C)C2)C1 (configuration not stated)", 60.4],
  ["Cc1cc2c(cc1N1C(=O)c3cccc4c(CCCO)ccc(c34)C1=O)n(C)c(=O)n2C", 71.7],
  ["COc1nc2ccc([C@@](O)(c3ccccc3)C3CCN(C(C)=O)CC3)cc2c(Cl)c1Cc1ccc(-n2cccn2)cc1 [JNJ-54119936]", 64.3],
  ["CCCCN(Cc1ccccc1)C(=O)c1ccc(S(=O)(=O)Nc2ccccc2)cc1", 52.2],
  ["COc1ccc(CCc2nc3cc(-c4c(C)noc4C)ccc3n2C[C@H](C)N2CCOCC2)cc1Cl", 47.7],
  ["COc1cc2c(cc1NS(=O)(=O)c1ccc(Br)cc1C)n(C)c(=O)n2C", 69.8]
]}
